Numbers sourced from patent US12115256B2.

test system: NCI-H2452 lung (mesothelioma) cancer cells; test: MTS cell proliferation assay, NCI-H2452; assay type: cell-based; settings: Homo sapiens, 96 h, 4 days, MTS (FIG. 2)
measure-name: pIC50
Units for pIC50: none; it is -log10 of a concentration expressed in mol/L.

Exam item: Return pIC50 for the following compound: Nc1ccn([C@@H]2O[C@H](CO)[C@@H](O)C2(F)F)c(=O)n1
Marked response: 4.52
